We begin with a simple list: items and their reported apparent KD of MS2 coat protein.
- Tested on: MS2 coat protein
- MEASUREMENT NOTES: apparent KD of MS2 coat protein; designed switch direction (-1 OFF switch, 1 ON switch): 1; higher = weaker reporter binding
- EXPERIMENTAL CONDITIONS: Eterna round: R95; input ligand: microRNA oligo, concentration not stated
Write the number in nM without appending the unit.

Hi! What's the reported apparent KD of MS2 coat protein for GAGGAUGAUUUACAGGAUAUAUAGCAGAUGACAUGAGGAUCACCCAUGUAAGAGAAAGGAGGGAGAUAGAAGGGUAUGGGAGGUG [JR_SS2_Sub038] (puzzle: Same State 2) on MS2 coat protein?
35.4

Query GUUAAACAUGAGGAUCACCCAUGUCAUCUAAGUCGAGGAUAUGGGAAUUAAUUAAUUAAACCAGAAGGCGAAAAUU [Mat - Same State 1 - D95] (puzzle: Same State 1) next
756

Check GGUCCAGCCUGAGCUGGACAAAAGUAUGUACAUGAGGAUCACCCAUGUCAUGUACAAGCUUUUUGCUCGUCUUAAAA [JL mod - D87 - 9] (puzzle: Sensor for hsa-mir-208a) too.
22.4

Value source: the supplement of paper PMC9170038
